# Lookup of reported pKi keyed by entry
# study_target: h-GABAA α5β2γ1 (Homo sapiens, UniProt P31644+Q8N1C3)
# Sequence (P31644 32-462): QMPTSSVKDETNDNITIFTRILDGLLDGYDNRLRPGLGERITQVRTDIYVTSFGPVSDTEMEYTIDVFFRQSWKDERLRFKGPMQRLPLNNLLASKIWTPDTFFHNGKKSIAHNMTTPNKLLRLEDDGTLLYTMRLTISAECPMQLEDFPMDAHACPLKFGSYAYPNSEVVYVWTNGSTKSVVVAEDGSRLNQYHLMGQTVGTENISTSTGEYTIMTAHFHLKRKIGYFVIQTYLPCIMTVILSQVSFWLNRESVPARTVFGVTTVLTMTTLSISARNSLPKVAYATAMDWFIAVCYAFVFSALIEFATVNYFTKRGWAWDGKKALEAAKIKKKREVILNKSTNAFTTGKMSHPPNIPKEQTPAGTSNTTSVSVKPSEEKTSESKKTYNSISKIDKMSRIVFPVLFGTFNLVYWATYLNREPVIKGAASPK
# Sequence (P47870 25-512 partner limits assumed): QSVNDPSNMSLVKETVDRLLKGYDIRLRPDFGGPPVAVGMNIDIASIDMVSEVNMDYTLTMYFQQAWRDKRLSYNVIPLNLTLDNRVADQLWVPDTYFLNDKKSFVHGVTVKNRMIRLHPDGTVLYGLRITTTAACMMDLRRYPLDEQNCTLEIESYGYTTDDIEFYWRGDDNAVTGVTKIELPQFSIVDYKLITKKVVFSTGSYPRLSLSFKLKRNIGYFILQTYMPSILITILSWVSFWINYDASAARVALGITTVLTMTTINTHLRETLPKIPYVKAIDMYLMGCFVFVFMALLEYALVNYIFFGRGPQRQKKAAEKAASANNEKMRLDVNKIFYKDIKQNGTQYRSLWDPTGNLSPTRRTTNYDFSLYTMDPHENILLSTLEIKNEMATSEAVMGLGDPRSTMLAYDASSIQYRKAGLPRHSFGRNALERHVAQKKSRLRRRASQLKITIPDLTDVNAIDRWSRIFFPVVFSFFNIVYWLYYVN
# Sequence (Q8N1C3 36-465): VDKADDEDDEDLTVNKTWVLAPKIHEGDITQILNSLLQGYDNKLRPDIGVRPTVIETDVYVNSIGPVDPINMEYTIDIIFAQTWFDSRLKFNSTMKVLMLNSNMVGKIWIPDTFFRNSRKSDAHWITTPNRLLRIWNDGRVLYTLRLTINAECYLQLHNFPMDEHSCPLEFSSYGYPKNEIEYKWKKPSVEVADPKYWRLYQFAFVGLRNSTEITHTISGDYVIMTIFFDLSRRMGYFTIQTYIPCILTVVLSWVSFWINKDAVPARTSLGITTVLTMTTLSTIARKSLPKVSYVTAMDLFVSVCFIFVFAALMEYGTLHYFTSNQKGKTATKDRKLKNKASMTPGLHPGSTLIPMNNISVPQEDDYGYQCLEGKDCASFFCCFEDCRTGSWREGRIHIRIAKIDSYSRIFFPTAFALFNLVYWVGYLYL
# measurement_protocol: Radioligand binding assay, [3H]RO7239181 competition, HEK293F membranes
pKi: −log10 of the molar value.

>  <compound>
Fc1cccnc1C1=NCc2nnc(-c3ccncn3)n2-c2ccc(Br)c(Cl)c21 [Example 46]

>  <study_target>
h-GABAA α5β2γ1 (Homo sapiens, UniProt P31644+Q8N1C3)

>  <pKi>
8.41

$$$$
>  <compound>
Fc1cccc(F)c1C1=NCc2nnc(C3CCOCC3)n2-c2ccc(Cl)c(Cl)c21 [Example 11]

>  <study_target>
h-GABAA α5β2γ1 (Homo sapiens, UniProt P31644+Q8N1C3)

>  <pKi>
8.08

$$$$
>  <compound>
Fc1cccnc1C1=NCc2nnc(C3CC3)n2-c2ccc(Br)c(Cl)c21 [Example 77]

>  <study_target>
h-GABAA α5β2γ1 (Homo sapiens, UniProt P31644+Q8N1C3)

>  <pKi>
8.55

$$$$
>  <compound>
Clc1cccnc1C1=NCc2nnc(-c3cccnn3)n2-c2ccc(Br)c(Cl)c21 [Example 47]

>  <study_target>
h-GABAA α5β2γ1 (Homo sapiens, UniProt P31644+Q8N1C3)

>  <pKi>
8.89

$$$$
>  <compound>
Cc1nnc2n1-c1ccc(Br)c(Cl)c1C(c1c(F)cccc1F)=NC2 [Example 1]

>  <study_target>
h-GABAA α5β2γ1 (Homo sapiens, UniProt P31644+Q8N1C3)

>  <pKi>
8.96

$$$$
>  <compound>
O=c1[nH]nc2n1-c1ccc(Cl)c(Cl)c1C(c1ncccc1F)=NC2 [Example 59]

>  <study_target>
h-GABAA α5β2γ1 (Homo sapiens, UniProt P31644+Q8N1C3)

>  <pKi>
8.23

$$$$
>  <compound>
Fc1cccc(F)c1C1=NCc2nncn2-c2ccc(C(F)(F)F)c(Cl)c21 [Example 37]

>  <study_target>
h-GABAA α5β2γ1 (Homo sapiens, UniProt P31644+Q8N1C3)

>  <pKi>
8.68

$$$$
>  <compound>
Fc1cccnc1C1=NCc2nncn2-c2ccc(Cl)c(Cl)c21 [Example 60]

>  <study_target>
h-GABAA α5β2γ1 (Homo sapiens, UniProt P31644+Q8N1C3)

>  <pKi>
8.12

$$$$
>  <compound>
COc1ccc2c(c1Cl)C(c1c(F)cccc1F)=NCc1nnc(-c3cccnc3)n1-2 [Example 62]

>  <study_target>
h-GABAA α5β2γ1 (Homo sapiens, UniProt P31644+Q8N1C3)

>  <pKi>
8.40

$$$$
>  <compound>
Cc1nnc2n1-c1ccc(C(F)(F)F)c(Cl)c1C(c1ncccc1F)=NC2 [Example 78]

>  <study_target>
h-GABAA α5β2γ1 (Homo sapiens, UniProt P31644+Q8N1C3)

>  <pKi>
8.11

$$$$
>  <compound>
O=c1[nH]nc2n1-c1ccc(Br)c(Cl)c1C(c1ccccc1F)=NC2 [Example 26]

>  <study_target>
h-GABAA α5β2γ1 (Homo sapiens, UniProt P31644+Q8N1C3)

>  <pKi>
8.64

$$$$
>  <compound>
Cn1cc(-c2nnc3n2-c2ccc(Cl)c(Cl)c2C(c2c(F)cccc2F)=NC3)cn1 [Example 28]

>  <study_target>
h-GABAA α5β2γ1 (Homo sapiens, UniProt P31644+Q8N1C3)

>  <pKi>
8.85

$$$$
>  <compound>
Cl.NCc1nnc2n1-c1ccc(Br)c(Cl)c1C(c1c(F)cccc1F)=NC2 [Example 36, hydrochloride]

>  <study_target>
h-GABAA α5β2γ1 (Homo sapiens, UniProt P31644+Q8N1C3)

>  <pKi>
8.74

$$$$
>  <compound>
Fc1cccc(F)c1C1=NCc2nnc(-c3cccnn3)n2-c2ccc(C(F)(F)F)c(Cl)c21 [Example 38]

>  <study_target>
h-GABAA α5β2γ1 (Homo sapiens, UniProt P31644+Q8N1C3)

>  <pKi>
8.72

$$$$
>  <compound>
Cc1nnc2n1-c1ccc(C(F)F)c(Cl)c1C(c1c(F)cccc1F)=NC2 [Example 25]

>  <study_target>
h-GABAA α5β2γ1 (Homo sapiens, UniProt P31644+Q8N1C3)

>  <pKi>
8.36

$$$$
>  <compound>
O=c1[nH]nc2n1-c1ccc(Br)c(Cl)c1C(c1c(F)cccc1F)=NC2 [Example 13]

>  <study_target>
h-GABAA α5β2γ1 (Homo sapiens, UniProt P31644+Q8N1C3)

>  <pKi>
8.96

$$$$
>  <compound>
CO[C@H]1C[C@H](c2nnc3n2-c2ccc(Cl)c(Cl)c2C(c2c(F)cccc2F)=NC3)C1 [Example 91]

>  <study_target>
h-GABAA α5β2γ1 (Homo sapiens, UniProt P31644+Q8N1C3)

>  <pKi>
8.51

$$$$
